Items are presented alongside their recorded melting point.
Observed property: melting point

1) Nc1nc2ccc(C(O)C(COc3ccccc3)N3CCC(Cc4ccccc4)CC3)cc2s1 (stereo unspecified) :: 210 to 214 °C
2) CON(c1ccc([N+](=O)[O-])cc1Cl)S(=O)(=O)c1cccc([N+](=O)[O-])c1 :: 168 to 169 °C
3) COc1cccc(NC(=O)c2ccccc2C)c1 :: 142 to 143 °C
4) COc1ccc(C#N)cc1C(=O)NCCN1CCC(C(=O)c2ccc(F)cc2)CC1 :: 167 to 169 °C
5) CNCC1CN(c2c(F)cc3c(=O)c(C(=O)O)cn(C4CC4)c3c2F)CCO1 (stereo unspecified) :: 257 to 259 °C
6) COC(=O)NNS(=O)(=O)c1ccccc1 :: 149 to 154 °C
7) CCCC(=O)Nc1nc(=O)n(C2OC(C)C(O)C2O)cc1F (stereo unspecified) :: 156 to 157 °C
8) N#CN1c2ccccc2CC(Cl)c2ccccc21 (stereo unspecified) :: 139 to 140 °C
9) Cn1c(=O)cnn(-c2cc(O)c(Cl)cc2Cl)c1=O :: 199 to 201 °C
10) CCCN1C(=O)C2C3CCC(O3)C2C1=O (stereo unspecified) :: 79 to 80 °C
11) Clc1cn2c(Cl)cnc2c(Br)n1 :: 100 to 101 °C

----------
Below, each entry is listed alongside its reported melting point.
Observed property: melting point

1. C=Cc1ccc(COc2ccc(CO)cc2)cc1 :: 110 to 112 °C
2. COC(=O)C(=C/c1ccccc1)/C(=C\c1cc(OC)c(OC)c(OC)c1)C(N)=O :: 121 to 122 °C
3. CC(=O)N(C)c1cccc(S(=O)(=O)c2ccc([N+](=O)[O-])cc2)c1 :: 194 to 195 °C
4. COc1ccc(C2(CCN3CCC(C(=O)c4nc5ccccc5n4Cc4ccc(F)cc4)CC3)CCN(C(=O)c3ccccc3)C2)cc1OC (stereo unspecified) :: 42 to 44 °C
5. Cc1nc(NC(=O)c2cc(F)cc(F)c2)sc1C(=O)NCc1ccccc1 :: 84 to 86 °C
6. CCCCC(C(O)c1ccc(Cl)cc1)n1cncn1 (stereo unspecified) :: 93 to 94 °C
7. CCc1cccc(C(=O)NN(C(=O)c2cc(C)cc(C)c2)C(C)(C)C)c1C :: 167 to 169 °C
8. Clc1ccc(-c2nc(-n3cccn3)oc2CCC2=NCCO2)cc1 :: 79 to 80 °C
9. CC(Oc1ccc(NC(=O)NC(=O)c2ccccc2Cl)cc1)c1ccccc1 (stereo unspecified) :: 166 to 167 °C
10. Oc1ccc(Oc2cccc(-c3c(Cc4ccccc4)cnc4c(C(F)(F)F)cccc34)c2)cc1 :: 55 to 60 °C
11. CC(=O)c1cc(Oc2ccc(NC(=O)Nc3ccccc3C(F)(F)F)cc2)ncn1 :: 149 to 151 °C
12. O=C(O)c1ccc(CF)cc1 :: 192 to 194 °C
13. O=C(Cc1cc(C(F)(F)F)ns1)c1ccc(Cl)cc1 :: 109 to 110 °C
14. NS(=O)(=O)c1ccc(C2CCN(c3cc([N+](=O)[O-])ccn3)CC2)cc1 :: 215 to 217 °C
15. O=C1c2cccc3cccc(c23)C(=O)N1CCCO :: 115 to 118 °C
16. O=C(O)c1ccc(-n2cnnc2S)cc1 :: > 300 °C
17. COC(=O)c1ccc(NC(=O)C(CC(=O)O)c2ccccc2)cc1 (stereo unspecified) :: 190 °C
18. CCCC(O)P(=O)(O)OCCCN (stereo unspecified) :: 188 °C
19. O=c1[nH]nnn1-c1ccc([N+](=O)[O-])cc1F :: 148 to 150 °C
20. CN(C)S(=O)(=O)c1cc2c(c(Cl)c1Cl)OC(CCl)C2 (stereo unspecified) :: 77 to 78 °C
21. COc1cc(NC(=O)c2cccc(CSc3cnccn3)c2)cc(OC)c1OC :: 112 to 119 °C

----------
Entries annotated with measured melting point
Observed property: melting point

1) COc1cc2c(=O)cc(C(=O)O)n(C)c2ccc1=O :: > 250 °C
2) O=c1[nH]c2cc(Br)c3c(c2[nH]c1=O)CN(Cc1ccccc1)CC3 :: 297 to 302 °C
3) CCOC(=O)Cn1nc2ccc(NCCCN3CCC(OC(c4ccccc4)c4ccccc4)CC3)nn2c1=O :: 137 to 139 °C
4) COc1cccc2c1Cc1ccccc1C2(CC(=O)O)CC(=O)O :: 150 to 153 °C
5) CC(Nc1nc(NNC(=O)CCCl)nc(Cl)c1-c1c(F)cccc1Cl)C(F)(F)F (centres undefined) :: 152 to 156 °C
6) CCn1cc(C(=O)O)c(=O)c2cc(F)c(N3CCC(CNC)C3)cc21 (centres undefined) :: 247 to 250 °C
7) O=C(O)CCC(=O)N1Cc2c(cc3ccc4c(c3c2-c2ccc3c(c2)OCO3)OCO4)C1=O :: 231 to 233 °C
8) CC(C)N1CC(C(=O)c2ccc(Cc3ccc(F)cc3)o2)=C(O)C1=O :: 155 to 157 °C
9) CCOC(=O)CCCC(=O)c1ccc(O)c(CCC(=O)OCC)c1 :: 68 to 69 °C
10) CN1CCCC2CCCC(N(C)C(=O)Cc3ccc(Cl)c(Cl)c3)C21 (centres undefined) :: 92 °C
11) O=C1c2cccc(OCc3ccccc3)c2-c2nn(CCNCCO)c3ccc(Cl)c1c23 :: 165 to 167 °C
12) Cc1cc(C2=C(C=O)C(C)(C)CC(C)(C)C2)ccc1F :: 50.5 to 51.5 °C
13) CNS(=O)(=O)CCc1ccc2[nH]cc(CC(=O)O)c2c1 :: 123 to 125 °C
14) O=C(O)CCCCC[C@H]1CC[C@@H](O)CC1 :: 83 to 85 °C
15) Nc1nc2c(c(Nc3ccc(Cl)cc3)n1)-c1ccccc1C2 :: 216 to 217 °C
16) FC(F)(F)c1nnnn1-c1ccc(C2=NOC(c3cc(Cl)cc(Cl)c3)(C(F)(F)F)C2)cc1 (centres undefined) :: 147 to 151 °C
17) O=C(O)CCc1ccc(OCc2ccc(CN(CCc3ccccc3)c3nc(-c4ccccc4)cs3)cc2)cc1 :: 114 to 115 °C
18) c1ccc2nc3c(nc2c1)OCC1CCCCN31 (centres undefined) :: 141 to 143 °C
19) O=C(O)CCc1oc(Sc2nncn2-c2ccccc2)nc1-c1ccc(Cl)cc1 :: 122 to 123 °C
20) Cc1ccc(-c2cc(S(=O)(=O)c3ccc(N)cc3)cc(N3CCCC3)n2)cc1 :: 250 to 251 °C
21) CCOc1ccc2c(C)c(CCO)c(=O)oc2c1OCC :: 130 to 131 °C
22) O=c1cc(-c2ccncn2)nc2n1CCCCC2 :: 148 to 150 °C
23) Cc1[nH]nc(Oc2c(Cl)cc(C(F)(F)F)cc2Cl)c1C :: 220 to 223 °C
24) CCS(=O)(=O)Nc1ccc(S(=O)(=O)C=CC#N)cc1 :: 177 to 180 °C
25) OCc1cc(N(c2ccccc2)c2ccccc2)c(CO)cc1N(c1ccccc1)c1ccccc1 :: 208 to 210 °C
26) Cc1nc2c(Cl)cnn2c(Cl)c1CCCl :: 115 to 117 °C
27) Cc1cc(C)c(CC(C)CC(C(=O)C(CC(C)Cc2c(C)cc(C)cc2C)N2C(=O)c3ccccc3C2=O)N2C(=O)c3ccccc3C2=O)c(C)c1 (centres undefined) :: 131 to 132 °C
28) Cc1oc(-c2ccco2)nc1COc1ccc(COc2nn(-c3ccccc3)cc2C=O)cn1 :: 122 to 123 °C
29) O=C(O)C(=O)CC(=O)c1cn(Cc2ccncc2)c2ccccc2c1=O :: > 300 °C
30) CN1CCN(c2n[nH]c(-c3ccc(I)cc3)c2-c2ccncc2)CC1 :: 265 to 266 °C
31) S=C(Nc1ccc(Cl)cc1)NC1CCCCC1 :: 179 to 180 °C
32) CCCc1c(COc2ccc(Cc3nnn(CC(=O)O)n3)cc2)ccc(C(C)=O)c1O :: 87 to 90 °C
33) O=C(Nc1cccc(S(=O)(=O)c2ccccn2)c1)C(O)(C(F)(F)F)C(F)(F)F :: 264 to 267 °C
34) COC(=O)c1ccc(CBr)c2occc12 :: 73 to 80 °C
35) COc1cc2ncnc(-c3cn(S(C)(=O)=O)c4ccccc34)c2cc1OC :: > 220 °C
36) CCN1CC(=O)N(c2c(C(C)C)cccc2C(C)C)C1=S :: 159 to 161 °C
37) Cc1c(CC(=O)O)c2cc(O)c(F)cc2n1C(=O)c1ccc(Cl)cc1 :: 193 to 195 °C
38) CN(C)Cc1ccc2c(NCc3ccc(NC(=O)c4ccc(F)cc4)cc3)nc(N(C)C)nc2c1 :: 94 °C
39) COc1cc(CN2C(=O)CN(C)C2=O)cc(OC)c1-c1ccc(C[C@H](NC(=O)c2c(Cl)cccc2Cl)C(=O)O)cc1 :: 248 °C
